test system: HDAC activity in primary mouse cortical cultures; assay: Whole-Cell Histone Deacetylase (HDAC) Inhibition Assay in Primary Mouse Cortical Cultures; type: cell-based; settings: whole-cell (WC), mouse cortical neurons; Table 9; read-out: HDAC Inhibition (IC50 μM) WC mouse cortical neurons

structure	IC50
O=C(NO)c1cnc(N2C[C@@H]3C[C@H]2CN3C(=O)OC2CCOCC2)nc1	< 1 µM
O=C(NO)c1ccc(N2C[C@@H]3C[C@H]2CN3c2cccc(C(F)(F)F)c2)cc1	1 to 5 µM
Cc1ccc(N2C[C@H]3C[C@@H]2CN3c2ncc(C(=O)NO)cn2)cc1	< 1 µM
Cc1cccc(N2C[C@H]3C[C@@H]2CN3c2ccc(C(=O)NO)cc2)c1	1 to 5 µM
COc1cccc(N2C[C@@H]3C[C@H]2CN3c2ncc(C(=O)NO)cn2)c1	< 1 µM

---

Molecular target: one or more of HDAC-1, HDAC-2, HDAC-3, HDAC-4, HDAC-5, HDAC-6, HDAC-7, HDAC-8, HDAC-9, HDAC-10 and HDAC-11
Assay: Inhibition of Histone Deacetylase Enzymatic Activity (Boc-Lys(Ac)-AMC substrate, Fluor-de-Lys developer)
Type: biochemical
Conditions: Table 8; read-out: HDAC Inhibition (IC50 μM) HDAC Enzyme
Procedure: The following protocol is used to assay the compounds of the disclosure. The mixture is pre-incubated for 5 minutes at room temperature. The reaction is started by bringing the temperature to 37° C. and adding 16 μl substrate. Total reaction volume is 50 μl. In the Tables 8, 9 and 10, A≦0.05 μM; 0.05 μM<B≦0.1 μM; 0.1 μM<C≦1 μM; and 1 μM<D≦10 μM.
assay-metric: IC50

molecule	value-measured
COc1cccc2c1C(c1ccc(C(=O)NO)cc1)=Nc1ccccc1O2	0.1 to 1 µM
CN(O)C(=O)c1ccc(C2=Nc3ccccc3N(C3CC3)c3ccccc32)cc1	1 to 10 µM
O=C(NO)c1ccc(C2=Nc3ccccc3Oc3c[n+]([O-])ccc32)cc1	0.1 to 1 µM
O=C(NO)c1ccc(C2=Nc3ccccc3N(CCN3CCOCC3)c3ccccc32)cc1	0.1 to 1 µM
O=C(NO)c1ccc(C2=Nc3ccccc3[S+]([O-])c3ccccc32)cc1 (centres unmarked)	0.1 to 1 µM

---

molecular target: one or more of HDAC-1, HDAC-2, HDAC-3, HDAC-4, HDAC-5, HDAC-6, HDAC-7, HDAC-8, HDAC-9, HDAC-10 and HDAC-11; test: Inhibition of Histone Deacetylase Enzymatic Activity (Boc-Lys(Ac)-AMC substrate, Fluor-de-Lys developer); type: biochemical; settings: Table 10; read-out: HDAC Inhibition (IC50 μM) HDAC Enzyme
Recorded IC50 for the following molecules

molecule	IC50
O=C(CCCCCN1c2ccccc2C=Cc2ccccc21)NO	< 0.05 µM
O=C(NO)c1cnc(N2C[C@H]3C[C@@]3(c3ccc(Cl)c(Cl)c3)C2)nc1	0.1 to 1 µM
O=C(NO)c1ccc(CN2c3ccccc3C=Cc3ccccc32)cc1	< 0.05 µM
O=C(CCCN1C(=O)c2cccnc2N(C2CC2)c2ccccc21)NO	1 to 10 µM
O=C(NO)c1ccc(Cn2c(-c3ccccc3)cc3ccccc32)cc1	0.1 to 1 µM
O=C(CCCCCCOc1nc2ccccc2c2ccccc12)NO	< 0.05 µM
O=C(NO)c1ccc(CNC(c2ccccc2)c2ccccc2)cc1	< 0.05 µM
O=C(NO)c1ccc(OCCN2C(=O)c3ccccc3Oc3ccccc32)cc1F	0.05 to 0.1 µM
O=C(CCCCCCCN1C(=O)CN=C(c2ccccc2)c2ccccc21)NO	0.1 to 1 µM
O=C(NO)c1cn2c(n1)sc1ccccc12	0.1 to 1 µM
O=C(CCCCCCON=C1c2ccccc2CCc2ccccc21)NO	0.1 to 1 µM
O=C(CCCCCCN1c2ccccc2Oc2ccccc2S1(=O)=O)NO	0.1 to 1 µM
O=C(NO)c1cnc(C2c3ccccc3C=Cc3ccccc32)nc1	0.1 to 1 µM
O=CN(O)CCCCCCN1C(=O)c2ccccc2Oc2ccccc21	< 0.05 µM
O=C(NO)c1cccc(OCCN2C(=O)c3ccccc3Oc3ccccc32)c1	0.1 to 1 µM
O=C(NO)c1ccc(Cn2c(=O)c3ccccc3c3ccccc32)cc1	< 0.05 µM
O=C(NO)c1cnc(N2C[C@@H]3C[C@]3(c3ccc(Cl)c(Cl)c3)C2)nc1	0.1 to 1 µM
O=C(NO)c1cnc(NC2c3ccccc3C=C(F)c3ccccc32)nc1 (stereo not shown)	< 0.05 µM
O=C(NO)c1ccc(OCCN2C(=O)c3ccccc3Oc3ccccc32)cc1	< 0.05 µM
O=C(NO)c1ccc(NC2c3ccccc3CCc3ccccc32)nc1	< 0.05 µM
O=C(CCCCCCC(=O)NC1c2ccccc2C=Cc2ccccc21)NO	0.1 to 1 µM
O=C(/C=C/c1ccc(CN2c3ccccc3C=Cc3ccccc32)cc1)NO	0.05 to 0.1 µM
O=C(/C=C/c1ccc(CN2C(=O)c3cccnc3N(C3CC3)c3ccccc32)cc1)NO	< 0.05 µM
O=C(Cc1ccc(CN2C(=O)c3ccccc3Oc3ccccc32)cc1)NO	0.1 to 1 µM
O=C(NO)c1cnc(N2C[C@H]3C[C@@]3(c3cccc(C(F)(F)F)c3)C2)nc1	0.1 to 1 µM
O=C(Cc1ccc(CN2c3ccccc3C=Cc3ccccc32)cc1)NO	0.1 to 1 µM
O=C(CCCCCCN1C(=O)c2cccnc2N(C2CC2)c2ccccc21)NO	0.05 to 0.1 µM
O=C(NO)c1cnc(N2CCn3c(nnc3-c3ccccc3)C2)nc1	< 0.05 µM
O=C(NO)c1cnc(N2CCN(C3c4ccccc4CCc4ccccc43)CC2)nc1	0.1 to 1 µM
CN1CCc2[nH]c3ccc(C(=O)NO)cc3c2C1	1 to 10 µM
O=C(CCCN1c2ccccc2C=Cc2ccccc21)NO	1 to 10 µM
O=C(CN1c2ccccc2C=Cc2ccccc21)NO	1 to 10 µM
O=C(NO)c1ccc(OCCN2C(=O)CCOc3ccccc32)cc1	< 0.05 µM
O=C(NO)c1ccc(OCCN2C(=O)c3ccccc3Oc3cc(Cl)ccc32)cc1	< 0.05 µM
CN1CCC2=C(C1)Oc1ccccc1N(CCOc1ccc(C(=O)NO)cc1)C2=O	< 0.05 µM
O=C(CCCCCN1C(=O)c2ccccc2Oc2ccccc21)NO	< 0.05 µM
O=C(CCCCN1c2ccccc2C=Cc2ccccc21)NO	0.1 to 1 µM
O=C(NO)c1cccc(CN2c3ccccc3Sc3ccccc32)c1	0.1 to 1 µM
O=C(CCCCCCN1c2ccccc2C=Cc2ccccc21)NO	< 0.05 µM
O=C(NO)c1ccc(CN2C(=O)c3ccccc3CCc3ccccc32)cc1	0.1 to 1 µM
CN(c1ncc(C(=O)NO)cn1)C1c2ccccc2CCc2ccccc21	< 0.05 µM
O=C(NO)c1ccc(CN2C(=O)c3ccccc3Oc3ccccc32)cc1	< 0.05 µM
O=C(NO)c1ccc(COC2c3ccccc3CCc3ccccc32)cc1	0.1 to 1 µM
O=C(NO)c1ccc(Cn2c3c(c4ccccc42)CCCCCC3)cc1	0.1 to 1 µM
O=C(NO)c1ccc(CNC2c3ccccc3CCc3ccccc32)cc1	< 0.05 µM
O=C(NO)c1cnc(NC(c2ccc(F)cc2)c2ccc(F)cc2)nc1	< 0.05 µM
